Test system: NK-92 (IL-2 2.5 ng/mL)
TEST_DETAILS: percent inhibition of viability; higher = more inhibition;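 also: normalised to DMSO-only wells as negative and benzethonium chloride as positive control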
CONDITION_SET: 72 h; 1 nM
Record form. Attribute: percent inhibition of viability. Fill in for each entry.
Quick note: give the figure in %, leave out the unit.

Inquiry: Using the record for COc1nc(N)nc2c1ncn2[C@@H]1O[C@H](CO)[C@@H](O)[C@@H]1O [Nelarabine] (max concentration tested 10000 nM) , report its percent inhibition of viability.
Reply text: 8.71

Inquiry: Could you share which percent inhibition of viability value was measured for CC[C@]1(O)C[C@H]2CN(CCc3c([nH]c4ccccc34)[C@@](C(=O)OC)(c3cc4c(cc3OC)N(C=O)[C@H]3[C@@](O)(C(=O)OC)[C@H](OC(C)=O)[C@]5(CC)C=CCN6CC[C@]43[C@@H]65)C2)C1 [Vincristine] (max concentration tested 1000 nM) ?
Reply text: -12.7

Inquiry: Which measured percent inhibition of viability value corresponds to O=C(O)CCCc1ccc(N(CCCl)CCCl)cc1 [Chlorambucil] (max concentration tested 10000 nM) ?
Reply text: -16.2

Inquiry: What value of percent inhibition of viability has been reported for the following compound? CC/C(=C(\c1ccc(O)cc1)c1ccc(OCCN(C)C)cc1)c1ccccc1 [4-hydroxytamoxifen] (max concentration tested 10000 nM)
Reply text: 3.77

Inquiry: Dear colleague, I am looking for the recorded percent inhibition of viability of the following compound: CCN(CC)CCOc1ccc(C(=C(Cl)c2ccccc2)c2ccccc2)cc1 [Clomifene] (max concentration tested 10000 nM)
Reply text: -3.93

Inquiry: What value of measured percent inhibition of viability is listed for Cn1c(CCCC(=O)O)nc2cc(N(CCCl)CCCl)ccc21 [Bendamustine] (max concentration tested 10000 nM) ?
Reply text: -10.3

Inquiry: Look at this compound and give its reported percent inhibition of viability. C[C@@H](C(=O)O)c1ccc(-c2ccccc2)c(F)c1 [Tarenflurbil] (max concentration tested 10000 nM)
Reply text: -0.98

Inquiry: # query: percent inhibition of viability of entry O=P1(NCCCl)OCCCN1CCCl (configuration not stated) [Ifosfamide] (max concentration tested 10000 nM)
Reply text: -16.3

Inquiry: Could you share which percent inhibition of viability value was measured for CC(C)Oc1cc(Nc2nc(N[C@@H](C)c3ccc(F)cn3)ncc2Cl)n[nH]1 [AZ-23] (max concentration tested 1000 nM) ?
Reply text: -0.57

Inquiry: Could you tell me which percent inhibition of viability is on file for Cc1ccc(-n2nc(C(C)(C)C)cc2NC(=O)Nc2ccc(OCCN3CCOCC3)c3ccccc23)cc1 [Doramapimod] (max concentration tested 10000 nM) ?
Reply text: 13

Inquiry: Form field: reported percent inhibition of viability of CCC1(c2ccc(N)cc2)CCC(=O)NC1=O (configuration not stated) [Aminoglutethimide] (max concentration tested 10000 nM)
Reply text: 7.96

Inquiry: Request the reported percent inhibition of viability associated with COC(=O)N[C@@H](C)CNc1nccc(-c2cn(C(C)C)nc2-c2cc(Cl)cc(NS(C)(=O)=O)c2F)n1 [Encorafenib] (max concentration tested 1000 nM)
Reply text: -5.79

* * *

Test system: YT (IL-2 2.5 ng/mL)
TEST_DETAILS: percent inhibition of viability; higher = more inhibition
CONDITION_SET: 72 h; 1000 nM
For each of the compounds below, state its percent inhibition of viability.

Inquiry: Reported percent inhibition of viability, compound CC/C(=C(\c1ccccc1)c1ccc(OCCN(C)C)cc1)c1ccccc1 [Tamoxifen] (max concentration tested 10000 nM) : ____
Reply text: 3.43%

Inquiry: // lookup percent inhibition of viability for Cc1c(CN2CCN(C(=O)[C@H](C)O)CC2)sc2c(N3CCOCC3)nc(-c3cnc(N)nc3)nc12 [Apitolisib] (max concentration tested 10000 nM)
Reply text: 47.5%

Inquiry: Consider the compound CCCCCCCCc1ccc(CCC(N)(CO)CO)cc1 [Fingolimod] (max concentration tested 10000 nM) and give its measured percent inhibition of viability.
Reply text: 8.33%

* * *

Test system: NKL (IL-2 2.5 ng/mL)
TEST_DETAILS: percent inhibition of viability; higher = more inhibition
CONDITION_SET: 72 h; 100 nM
Definition: the class of an entry is the range in lo (below -10%), med (-10% to below 20%), hi (20% or more) that contains its percent inhibition of viability.

Inquiry: In plain terms, what class is C[C@@H]1C[C@H]2[C@@H]3CCC4=CC(=O)C=C[C@]4(C)[C@@]3(F)[C@@H](O)C[C@]2(C)[C@@]1(O)C(=O)CO [Dexamethasone] (max concentration tested 10000 nM) ?
Reply text: hi

Inquiry: Please classify: CCN(CC)CCNC(=O)c1c(C)[nH]c(/C=C2\C(=O)Nc3ccc(F)cc32)c1C [Sunitinib] (max concentration tested 1000 nM)
Reply text: lo

Inquiry: Just checking, what class would you give CN1CCN(c2nc(C3=C(c4c[nH]c5ccccc45)C(=O)NC3=O)c3ccccc3n2)CC1 [Sotrastaurin] (max concentration tested 10000 nM) here?
Reply text: hi

Inquiry: Input Cc1cc2c(F)c(Oc3ncnn4cc(OC[C@@H](C)O)c(C)c34)ccc2[nH]1 [Brivanib] (max concentration tested 1000 nM) ; output its category
Reply text: lo

Inquiry: # classify by percent inhibition of viability band: CCN(CC)CCOc1ccc(C(=C(Cl)c2ccccc2)c2ccccc2)cc1 [Clomifene] (max concentration tested 10000 nM)
Reply text: med

Inquiry: Textbook exercise: identify the category of the compound given here, O=P1(NCCCl)OCCCN1CCCl (stereo unspecified) [Ifosfamide] (max concentration tested 10000 nM) , according to its measured value.
Reply text: lo

Inquiry: Each compound maps to one class by percent inhibition of viability. Which class for CO[C@H]1C[C@@H]2CC[C@@H](C)[C@@](O)(O2)C(=O)C(=O)N2CCCC[C@H]2C(=O)O[C@H]([C@H](C)C[C@@H]2CC[C@@H](OCCO)[C@H](OC)C2)CC(=O)[C@H](C)/C=C(\C)[C@@H](O)[C@@H](OC)C(=O)[C@H](C)C[C@H](C)/C=C/C=C/C=C/1C [Everolimus] (max concentration tested 100 nM) ?
Reply text: hi

Inquiry: Any idea which band N#Cc1ccc2[nH]c(O)c(-c3ccc(CN4CCOCC4)cn3)c2c1 [AZD-1080] (max concentration tested 10000 nM) is in?
Reply text: lo

Inquiry: Textbook exercise: identify the category of the compound given here, CCC(C)(C)C(=O)O[C@H]1C[C@@H](C)C=C2C=C[C@H](C)[C@H](CC[C@@H]3C[C@@H](O)CC(=O)O3)[C@H]21 [Simvastatin] (max concentration tested 10000 nM) , according to its measured value.
Reply text: med

Inquiry: Band for CC1(C)NC(=O)N(c2ccc([N+](=O)[O-])c(C(F)(F)F)c2)C1=O [Nilutamide] (max concentration tested 10000 nM) ?
Reply text: med

Inquiry: For this compound, which bin applies? O=C(O)c1ccc(-c2c[nH]c3ncc(-c4ccccc4)cc23)cc1C1CCCC1 (max concentration tested 10000 nM)
Reply text: med

* * *

Answer each item with its documented percent inhibition of viability.
Test system: normal primary NK cells, pool 2 (3 donors) (IL-2 2.5 ng/mL)
TEST_DETAILS: percent inhibition of viability; higher = more inhibition
CONDITION_SET: 72 h; 1 nM
Only the number, expressed in %, is required.

Inquiry: API: value(readout= percent inhibition of viability, system= normal primary NK cells, pool 2 (3 donors) (IL-2 2.5 ng/mL), query= CNC(=O)c1ccc2cc([C@@]3(O)CCn4cncc43)ccc2c1 [Orteronel] (max concentration tested 10000 nM) )
Reply text: -7.25

Inquiry: Value wanted: percent inhibition of viability (normal primary NK cells, pool 2 (3 donors) (IL-2 2.5 ng/mL)) of entry C[C@@H]1C[C@H]2[C@@H]3CCC4=CC(=O)C=C[C@]4(C)[C@@]3(F)[C@@H](O)C[C@]2(C)[C@@]1(O)C(=O)CO [Dexamethasone] (max concentration tested 10000 nM)
Reply text: 2.03

Inquiry: Provide value of percent inhibition of viability for this record tested with normal primary NK cells, pool 2 (3 donors) (IL-2 2.5 ng/mL): Cn1c(CCCC(=O)O)nc2cc(N(CCCl)CCCl)ccc21 [Bendamustine] (max concentration tested 10000 nM)
Reply text: -6.1

Inquiry: normal primary NK cells, pool 2 (3 donors) (IL-2 2.5 ng/mL) / percent inhibition of viability / CC[C@]1(O)C[C@H]2CN(CCc3c([nH]c4ccccc34)[C@@](C(=O)OC)(c3cc4c(cc3OC)N(C=O)[C@H]3[C@@](O)(C(=O)OC)[C@H](OC(C)=O)[C@]5(CC)C=CCN6CC[C@]43[C@@H]65)C2)C1 [Vincristine] (max concentration tested 1000 nM) : value?
Reply text: 11

Inquiry: # query: percent inhibition of viability | item Cc1ccc(-n2nc(C(C)(C)C)cc2NC(=O)Nc2ccc(OCCN3CCOCC3)c3ccccc23)cc1 [Doramapimod] (max concentration tested 10000 nM) | system: normal primary NK cells, pool 2 (3 donors) (IL-2 2.5 ng/mL)
Reply text: -9.43

Inquiry: Provide the documented percent inhibition of viability with normal primary NK cells, pool 2 (3 donors) (IL-2 2.5 ng/mL) as the system for CS(=O)(=O)N1CCN(Cc2cc3nc(-c4cccc5[nH]ncc45)nc(N4CCOCC4)c3s2)CC1 [Pictilisib] (max concentration tested 10000 nM)
Reply text: -12.1

Inquiry: percent inhibition of viability of COc1cccc2c1C(=O)c1c(O)c3c(c(O)c1C2=O)C[C@@](O)(/C(CO)=N/NC(=O)CCCCCN1C(=O)C=CC1=O)C[C@@H]3O[C@H]1C[C@H](N)[C@H](O)[C@H](C)O1 [Aldoxorubicin] (max concentration tested 1000 nM) on normal primary NK cells, pool 2 (3 donors) (IL-2 2.5 ng/mL)?
Reply text: -6.33

Inquiry: Write down the reported percent inhibition of viability of Cn1ncnc1[C@H]1c2n[nH]c(=O)c3cc(F)cc(c23)N[C@@H]1c1ccc(F)cc1 [Talazoparib] (max concentration tested 1000 nM) , test system: normal primary NK cells, pool 2 (3 donors) (IL-2 2.5 ng/mL).
Reply text: 6.14

Inquiry: Report percent inhibition of viability for O=C(CCCCCCNC(=O)c1cnc(N(c2ccccc2)c2ccccc2)nc1)NO [Rocilinostat] (max concentration tested 10000 nM) tested on normal primary NK cells, pool 2 (3 donors) (IL-2 2.5 ng/mL).
Reply text: -7.32

Inquiry: Requested read-out percent inhibition of viability, target or system normal primary NK cells, pool 2 (3 donors) (IL-2 2.5 ng/mL), entry Cn1c(=O)n(-c2ccc(C(C)(C)C#N)cc2)c2c3cc(-c4cnc5ccccc5c4)ccc3ncc21 [Dactolisib] (max concentration tested 1000 nM)
Reply text: 9.09

Inquiry: Short answer please: percent inhibition of viability, normal primary NK cells, pool 2 (3 donors) (IL-2 2.5 ng/mL), entry CC1(COc2ccc3c(c2)ncn3-c2ccc3cccc(N4CCC(N)CC4)c3n2)COC1 [Crenolanib] (max concentration tested 10000 nM)
Reply text: -14.1
